Test system: c-Abl (mouse)
Run Description: phosphorylation enrichment, bacterial display (enrichment ratio); higher = better substrate or ligand; peptides without Tyr show the background;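 further: 11-residue human phosphosite peptides and single-mutation variants displayed on the E. coli surface, counted by deep sequencing, each peptide's frequency after selection divided by its frequency in the unselected input library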;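 further: frequency after pTyr selection over input frequency; kinase dosed for 20-30% of maximal phosphorylation in three min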

Ordered Residues | phosphorylation enrichment
IFHENYNAGTF [CFI_Y421_YF] | 0.578
ENQEIYRKAFD [KPNA1_Y493_Q494R] | 0.812
RKPDIYERLAS [MCM4_Y459] | 0.901
FQEKGYNKEPR [CHRND_Y38_L42P] | 0.912
QLGLQYSQGLV [EIF2B4_Y214_R209Q] | 0.861
AMGPVYQAAAL [HYOU1_Y421_A419P] | 3.43
QRRLVYYERGA [RYR1_Y245_G248R] | 0.368
TWSPKYTLRSH [STRN3_Y474_N471S] | 0.52
NKVKFYIPDMN [NCR1_Y84] | 0.602
QISSNYDDAMQ [ZNF281_Y531] | 0.569
FEDALYTVLHR [UNC13D_Y61_YF] | 5.92
RPFFLYVAFHN [SGSH_Y174_D179N] | 0.472
FCRHNYGAVES [HLA-DRB1_Y112_V114A_YF] | 0.83
QDEHGYISWCF [HSPB1_Y133_R136W] | 1.55
VAVVQYSGMGQ [COL6A1_Y878_T881M] | 0.62
MYQVQYNSSVD [LRFN1_Y458] | 0.52
NVLPEYKLQAP [KCNH2_Y388_D383N] | 0.677
RIDPDYMGRVR [IGSF9_Y81_V82M] | 0.585
SAAAIYMVRHP [PMP22_Y117_T118M] | 1.65
LYEDCYLLGTS [ASS1_Y87_R86C] | 1.08
SVTCTYSPARN [TP53_Y126_L130R] | 0.84
DNPAKYFILEN [DPP10_Y512_S517N] | 0.935
RHTRSYDFTEG [FGF7_Y56_M59T_YF] | 0.563
LIFVSYDDWDF [GRIN2A_Y281_S278F_YF] | 2.77
DYYDLYGGKKF [PTPN11_Y66_E69K] | 0.698
SSMIDYNPLEK [MYOC_Y479] | 0.663
ACVARYIFKRL [LPCAT3_Y348_W344C] | 0.606
LLTALYFISRG [KCNH2_Y780] | 1.05
GEDDVYDSVPG [FGR_opt_2018] | 0.617
GLNKGYRMVVN [HINT1_Y94] | 0.461
RRGTGYTLPLP [MAGEC3_Y152_S155P] | 0.683
LGRTRYQDVTG [MIPEP_Y510_H512D] | 0.799
QEGPEYWDQQT [HLA-A_Y83_E87Q] | 1.78
ERTIEYLEEVA [HADHA_Y239] | 0.863
KGSEGYLAATY [NF1_Y2503] | 0.471
GVRLYYRVMES [RB1_Y454] | 0.731
GFVEDYRPPFF [ACVRL1_Y421_I417F_YF] | 0.868
SYCYRYRCAAR [SUMF1_Y344] | 0.776
AKKKMYSLKTK [AGXT_Y231_R233L] | 0.773
TSESSYFKSLN [NGEF_Y288_A286S_YF] | 0.636
AVLSLYASDRT [ACTA1_Y145_G148D] | 0.893

----------
Study System: FGFR3 (UniProt P22607)
Sequence (P22607 whole entry, looked up): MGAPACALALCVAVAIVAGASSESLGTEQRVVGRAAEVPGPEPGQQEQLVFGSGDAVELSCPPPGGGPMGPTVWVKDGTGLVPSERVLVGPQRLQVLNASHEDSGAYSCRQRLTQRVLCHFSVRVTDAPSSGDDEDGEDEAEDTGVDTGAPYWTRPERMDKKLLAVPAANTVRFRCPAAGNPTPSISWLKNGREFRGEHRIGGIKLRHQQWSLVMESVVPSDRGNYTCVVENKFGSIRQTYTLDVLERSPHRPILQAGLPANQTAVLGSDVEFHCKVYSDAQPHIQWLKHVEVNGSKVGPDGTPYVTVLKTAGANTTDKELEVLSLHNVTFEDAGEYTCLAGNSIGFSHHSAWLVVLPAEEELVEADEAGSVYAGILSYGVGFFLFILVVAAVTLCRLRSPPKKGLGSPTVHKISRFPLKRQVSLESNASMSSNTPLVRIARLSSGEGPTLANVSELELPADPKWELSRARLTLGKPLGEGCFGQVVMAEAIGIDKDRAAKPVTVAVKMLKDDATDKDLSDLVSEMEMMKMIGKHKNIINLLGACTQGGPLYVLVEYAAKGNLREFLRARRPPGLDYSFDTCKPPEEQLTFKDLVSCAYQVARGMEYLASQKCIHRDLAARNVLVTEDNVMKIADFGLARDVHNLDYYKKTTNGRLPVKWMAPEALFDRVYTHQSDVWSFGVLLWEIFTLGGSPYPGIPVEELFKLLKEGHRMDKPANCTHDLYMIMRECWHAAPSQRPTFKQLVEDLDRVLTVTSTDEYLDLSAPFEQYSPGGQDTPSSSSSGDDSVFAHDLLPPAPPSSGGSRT
Run Description: phosphorylation enrichment, bacterial display (enrichment ratio); higher = better substrate or ligand; peptides without Tyr show the background
Metric Name: phosphorylation enrichment

Ordered Residues | Numeric Readout
ELTAKYLNFFR [P3H4_Y181_Q186R_YF] | 0.513
VFLGAYDHFLP [SLC22A5_Y486_R488H_YF] | 0.811
HNQDGYSFPSR [LDLR_Y845_YF] | 1.08
DTLMEYLENPK [CYCS_Y68] | 0.905
GGQSVYHVHLH [HINT1_Y109] | 0.532
SLDLSYFTTSS [EMD_Y181_P183T_YF] | 0.605
IDPYTYTPFGS [CYP3A4_Y432_I431T] | 2.25
CGTPTCLAPEV [CHEK2_Y390_Y390C] | 0.627
FNSLPYQVPTS [CALCOCO2_Y358] | 0.578
QMIETYFDFRV [NSMF_Y506_L511V] | 4.49
TSFSGYRFHRH [NKAPL_Y94_YF] | 0.677
KMATAYIRSMS [BCO1_Y264_R267S] | 0.369
PVQAAYPKVVA [HBB_Y131_Q132P] | 0.503
KWRGQYDVAIR [BTK_Y425_K430R] | 0.533

----------
Study System: Fyn (UniProt P06241)
Sequence (P06241 whole entry, looked up): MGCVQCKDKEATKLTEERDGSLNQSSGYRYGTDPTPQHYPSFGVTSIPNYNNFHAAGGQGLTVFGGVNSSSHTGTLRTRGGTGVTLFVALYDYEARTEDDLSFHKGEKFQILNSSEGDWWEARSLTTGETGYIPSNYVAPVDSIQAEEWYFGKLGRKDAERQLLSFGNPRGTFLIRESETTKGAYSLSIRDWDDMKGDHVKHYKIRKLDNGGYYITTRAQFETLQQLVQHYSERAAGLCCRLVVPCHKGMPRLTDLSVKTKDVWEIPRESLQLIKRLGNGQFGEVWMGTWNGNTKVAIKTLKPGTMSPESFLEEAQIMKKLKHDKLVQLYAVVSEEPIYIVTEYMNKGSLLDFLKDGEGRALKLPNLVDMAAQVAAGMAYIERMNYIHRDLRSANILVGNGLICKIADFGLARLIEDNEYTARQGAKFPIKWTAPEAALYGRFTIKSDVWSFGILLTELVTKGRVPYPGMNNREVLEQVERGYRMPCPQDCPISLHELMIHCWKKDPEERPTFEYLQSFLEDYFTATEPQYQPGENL
Run Description: phosphorylation enrichment, bacterial display (enrichment ratio); higher = better substrate or ligand; peptides without Tyr show the background

Ordered Residues | phosphorylation enrichment
LSSETYVKSFT [F5_Y2149_M2148T_YF] | 0.665
QPSALYEDRYL [ASS1_Y83_S79P] | 0.946
EDGCIYPATIA [SMN1_Y109] | 0.587
RTLSEYARRHV [RERE_Y1259_P1262R] | 0.338
KREPQYSSHSS [SIPA1L3_Y1265_G1261R] | 0.338
QLYGPYLRIHA [BSCL2_Y213_A212P] | 2.04
GREEFYVHYVG [KAT8_Y90] | 0.518
RVLHNYLVWCV [ECEL1_Y400_R404C] | 0.535
DLQDEYDFKCK [STAT1_Y170] | 0.543
EAGKVYLKAAM [CBFB_Y96_P100A] | 0.408
SLMNQYVNKKF [RAB7A_Y28] | 0.383
TQKLAYMELQQ [CENPF_Y700] | 0.455
QVQQIYSDSDL [MIB1_Y376_R371Q] | 6.18
ERTIEYLEEVA [HADHA_Y239] | 0.722
TDVSLYPSGGT [TENM4_Y399] | 0.353
LLLLFYVVRFC [MPZ_Y177_YF] | 0.637
QEIATYRRLPE [KRT16_Y417_L421P] | 0.525
PADSGYPAYLG [ATP6V1A_Y374] | 1.05
CTTIHYMFMCN [TP53_Y234_N235M_YF] | 0.445
PLGVLYKVKVY [PTS_Y128_V124L] | 0.339
KAVLHYKHQNQ [MTOR_Y1804_E1799K] | 0.36
DYYDLYGGKKF [PTPN11_Y66_E69K] | 3.27
GRSTYYWPRPR [GAGE12J_Y10] | 0.524
GFFDLYGGEKF [PTPN11_Y66_D61G_YF] | 2.13
KIMVIYDGACQ [VWDE_Y1035_T1032M] | 0.885
FKDFFYCWNTF [AICDA_Y146_YF] | 0.618
SPPILYSFFLN [FCRL6_Y239_D244N_YF] | 2.46
NHFKIHNLCAE [PTEN_Y68_Y68H_YF] | 0.466
EWRSPYGLTPR [GRIN3B_Y601] | 0.657
CGTPTCLAPEV [CHEK2_Y390_Y390C] | 0.504

----------
# phosphorylation enrichment annotations
Study System: Fes (UniProt P07332)
Sequence (P07332 whole entry, looked up): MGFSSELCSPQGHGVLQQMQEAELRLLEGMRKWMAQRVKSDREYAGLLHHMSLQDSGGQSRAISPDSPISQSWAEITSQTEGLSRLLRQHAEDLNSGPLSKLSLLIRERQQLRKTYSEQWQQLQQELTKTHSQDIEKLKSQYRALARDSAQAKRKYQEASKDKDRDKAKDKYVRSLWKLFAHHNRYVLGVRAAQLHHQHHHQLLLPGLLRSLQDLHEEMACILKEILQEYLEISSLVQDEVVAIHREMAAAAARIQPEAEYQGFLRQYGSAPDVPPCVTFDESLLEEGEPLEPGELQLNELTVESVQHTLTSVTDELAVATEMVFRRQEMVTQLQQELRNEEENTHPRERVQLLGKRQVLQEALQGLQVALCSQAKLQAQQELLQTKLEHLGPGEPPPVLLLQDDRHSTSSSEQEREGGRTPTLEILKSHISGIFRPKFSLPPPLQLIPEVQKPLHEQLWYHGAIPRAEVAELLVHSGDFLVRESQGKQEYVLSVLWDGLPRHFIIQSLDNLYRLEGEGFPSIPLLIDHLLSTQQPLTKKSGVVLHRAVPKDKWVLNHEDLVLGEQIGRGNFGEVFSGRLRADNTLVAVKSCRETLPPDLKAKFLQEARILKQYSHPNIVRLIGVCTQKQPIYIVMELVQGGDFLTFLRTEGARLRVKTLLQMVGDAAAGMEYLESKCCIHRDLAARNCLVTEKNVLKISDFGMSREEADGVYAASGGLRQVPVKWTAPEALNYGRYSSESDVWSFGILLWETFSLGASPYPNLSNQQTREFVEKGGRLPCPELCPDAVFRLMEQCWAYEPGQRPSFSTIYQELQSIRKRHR
Run Description: phosphorylation enrichment, bacterial display (enrichment ratio); higher = better substrate or ligand; peptides without Tyr show the background
Metric Name: phosphorylation enrichment

Ordered Residues | Numeric Readout
ACVARYIFKRL [LPCAT3_Y348_W344C] | 0.841
EEGENYQKGER [CHGB_Y173] | 1.15
ENAGFYFQVSA | 1.15
PGPPGYCDSSQ [COL12A1_Y3043] | 1.41
IEELTYIIKQD [STX5_Y137] | 1.52
EIVFVYVKKRS [DNAI2_Y7_YF] | 1.05
LLQAEYWHDPI [PPT1_Y185_V181L] | 1.96
EDGCIYPATIA [SMN1_Y109] | 1.37
NNDLCYWVLEL [IARS1_Y434_P437L] | 1.88
SPPILYSFFLN [FCRL6_Y239_D244N_YF] | 1.17

----------
Entries and their phosphorylation enrichment
Study System: EPHB1 (UniProt P54762)
Sequence (P54762 whole entry, looked up): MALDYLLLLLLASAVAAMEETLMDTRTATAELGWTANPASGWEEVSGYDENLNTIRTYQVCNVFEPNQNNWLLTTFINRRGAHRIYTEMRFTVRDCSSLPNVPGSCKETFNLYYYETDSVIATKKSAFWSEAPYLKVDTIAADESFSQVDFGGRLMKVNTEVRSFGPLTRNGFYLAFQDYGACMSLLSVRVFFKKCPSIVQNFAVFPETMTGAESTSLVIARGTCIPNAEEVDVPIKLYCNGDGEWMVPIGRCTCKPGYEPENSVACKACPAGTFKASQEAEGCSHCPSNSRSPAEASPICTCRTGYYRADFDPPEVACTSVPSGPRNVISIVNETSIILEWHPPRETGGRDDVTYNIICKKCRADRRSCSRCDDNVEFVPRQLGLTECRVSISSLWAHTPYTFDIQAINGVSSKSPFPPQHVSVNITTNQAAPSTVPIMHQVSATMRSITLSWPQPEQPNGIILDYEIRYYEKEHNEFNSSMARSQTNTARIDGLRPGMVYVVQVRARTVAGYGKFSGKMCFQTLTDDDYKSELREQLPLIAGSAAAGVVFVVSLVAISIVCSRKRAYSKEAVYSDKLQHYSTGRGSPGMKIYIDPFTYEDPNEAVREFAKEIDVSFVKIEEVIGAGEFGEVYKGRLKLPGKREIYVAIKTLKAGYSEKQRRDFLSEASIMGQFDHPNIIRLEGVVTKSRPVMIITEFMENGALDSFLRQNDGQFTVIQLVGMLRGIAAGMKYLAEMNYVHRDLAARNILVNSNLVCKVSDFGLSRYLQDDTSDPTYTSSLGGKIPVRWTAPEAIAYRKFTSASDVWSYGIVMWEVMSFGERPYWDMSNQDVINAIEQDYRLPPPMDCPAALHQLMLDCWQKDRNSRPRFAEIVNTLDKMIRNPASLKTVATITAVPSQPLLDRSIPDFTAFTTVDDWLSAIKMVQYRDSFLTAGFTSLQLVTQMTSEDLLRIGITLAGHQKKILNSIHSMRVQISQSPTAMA
Run Description: phosphorylation enrichment, bacterial display (enrichment ratio); higher = better substrate or ligand; peptides without Tyr show the background

Ordered Residues | phosphorylation enrichment
TQKLAYMELQQ [CENPF_Y700] | 0.482
HVIKLYGACSQ [RET_Y791] | 0.875
DNPAKYFILEN [DPP10_Y512_S517N] | 0.59

----------
Study System: FGFR1 (UniProt P11362)
Sequence (P11362 whole entry, looked up): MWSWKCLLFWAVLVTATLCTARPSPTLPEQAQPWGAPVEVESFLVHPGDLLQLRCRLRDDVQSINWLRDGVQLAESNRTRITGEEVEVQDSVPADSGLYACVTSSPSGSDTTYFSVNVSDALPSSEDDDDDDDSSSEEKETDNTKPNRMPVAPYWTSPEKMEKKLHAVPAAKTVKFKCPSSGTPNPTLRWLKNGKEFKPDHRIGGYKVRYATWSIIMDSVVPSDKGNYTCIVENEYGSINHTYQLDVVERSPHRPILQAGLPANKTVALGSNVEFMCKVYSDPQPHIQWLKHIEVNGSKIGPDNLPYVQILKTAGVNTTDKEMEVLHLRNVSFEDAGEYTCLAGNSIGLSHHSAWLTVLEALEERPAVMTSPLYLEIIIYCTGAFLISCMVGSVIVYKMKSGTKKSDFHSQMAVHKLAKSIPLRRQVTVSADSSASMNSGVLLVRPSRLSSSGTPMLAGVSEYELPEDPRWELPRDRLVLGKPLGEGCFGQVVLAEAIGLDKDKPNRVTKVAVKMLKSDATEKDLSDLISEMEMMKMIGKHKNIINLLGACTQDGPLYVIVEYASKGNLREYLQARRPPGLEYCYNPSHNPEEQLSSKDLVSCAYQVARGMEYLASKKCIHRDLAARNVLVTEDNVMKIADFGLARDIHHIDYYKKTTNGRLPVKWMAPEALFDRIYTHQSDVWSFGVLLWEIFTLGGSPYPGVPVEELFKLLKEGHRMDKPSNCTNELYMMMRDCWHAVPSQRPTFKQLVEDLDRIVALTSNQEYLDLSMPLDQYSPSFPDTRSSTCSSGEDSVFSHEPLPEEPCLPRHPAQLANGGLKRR
Run Description: phosphorylation enrichment, bacterial display (enrichment ratio); higher = better substrate or ligand; peptides without Tyr show the background
Assign classes using reported phosphorylation enrichment values and the ranges low band (below 0.5), middle band (0.5 to below 0.7), high band (0.7 or more), please.

Ordered Residues | Assigned Category
DNEFAYLKAII [HNF4A_Y288_YF] | low band
IFRASYFRRGD [LTK_Y676_YF] | low band
VLTSKYPGGGG [HBA1_Y141_R142P] | low band
TESNNYIFKTL [FAM83B_Y637_YF] | middle band
ERLLDYTRTVQ [INPP5E_Y439] | middle band
LSSEMCVKSYT [F5_Y2149_Y2149C] | high band
IDPYTYTPFGS [CYP3A4_Y432_I431T] | high band
NDTAGYFIIGG [SEL1L3_Y399] | high band
QEALEYFMKQM [PIK3CA_Y1038] | middle band
ESMNTYLQTSP [NAT1_Y208] | middle band
LEQQKYTVTID [IKBKB_Y199_V203I] | high band
PVKDPYVMFPQ [PLEKHG2_Y489] | high band
LPKEQYLFTKE [AFG3L2_Y614_YF] | middle band
KIKGRYEKCEP [KRT26_Y119_W118R] | middle band
FRNSLYAPDYS [FAM92A_Y226] | middle band
CPYNLYAEQLS [HGD_Y40] | high band
PIFEGYGLPHA [ACTA1_Y171_A172G_YF] | middle band
YDCKWYIPLTD [BCR_Y756] | high band
LPKDLYLISQM [LARP4_Y141_S137P] | high band
PPPPAYDDVAQ [TNK2_Y635] | low band
FMKEPYIQSRF [HIPK4_Y175_V171M_YF] | low band
KLNNEHLELNY [MME_Y497_Y497H] | low band
RHLREYQDLLN [DES_Y388] | middle band
ADIETYLLEKS [MYH7_Y266] | low band
PFWKLYESVKK [MKI67_Y241] | middle band
TFEYRYLEDQD [CNOT3_Y746_R750Q] | high band
AVLSLYASDRT [ACTA1_Y145_G148D] | low band
VTQEQYELYCE [CBL_Y368] | middle band
RYLKDYGEFEV [GINS1_Y156_C152Y] | high band
QYQEKYKQVEQ [HCN4_Y531] | high band
EDASEYFENFI [PARP4_Y214_F215Y_YF] | high band
